- Test system: EKVX NSCLC
- PROCEDURE TEXT: NCI-60 one-dose screen, 48 h (100 = growth as untreated, 0 = no growth, -100 = all killed)
- MEASUREMENT SETUP: 10 µM unless noted
The panel holds about 83,000 compounds, 20% with a hit somewhere; the sample as a whole holds those more often.
Lab note: class by growth, see L (below 30%), M (30% to below 90%), H (90% or more)

A selection of reference data follows.
COMPOUND	CATEGORY
Cn1c(=O)c2[nH]c(Cc3ccc4c(c3)OCO4)nc2n(C)c1=O	H
Cc1ccc(NC(=O)c2nc(S(C)=O)oc2-c2ccc(F)cc2)cc1Nc1nccc(-c2cccnc2)n1 (stereo unspecified)	M
CC(C)c1[nH]ncc1-c1nc2ccc3[nH]ncc3c2c2c1CCCC2	L
O=C(OCc1ccc2c(Br)cc(Br)c(O)c2n1)c1cc2ccccc2[nH]1	L
COc1ccc(C(=O)C(CN(C)C)c2ccccc2)cc1 (stereo unspecified)	L
COc1cc(C)cc2oc3oc(=O)c(-c4csc(-c5cc6ccccc6oc5=O)n4)cc3c(=O)c12	H

Returns: class label. Input: C[C@@H](C[C@H](CC1CC1)c1ccccc1)c1ccc2ccccc2c1
H

Returns: class label. Input: Cc1n(Cc2ccc3ccccc3n2)cc[n+]1Cc1ccc2ccccc2c1
M

Returns: class label. Input: COCCOCCOCc1n(Cc2ccc3ccccc3n2)c2ccccc2[n+]1Cc1ccc2ccccc2c1
M

Returns: class label. Input: CCCCN(CCCC)CCC(=O)c1ccc(OC)c2ccccc12
H

Returns: class label. Input: CCCCN(CCCC)CCCN=c1nc2c(c(N)n1-c1ccccc1)c(=S)n(-c1ccccc1)c(=S)n2-c1ccccc1
L

---

Assignment: determine reported growth for the given compounds.
- Tested on: NCI-H460 lung
- PROCEDURE TEXT: NCI-60 one-dose screen, 48 h (100 = growth as untreated, 0 = no growth, -100 = all killed)
- MEASUREMENT SETUP: 10 µM unless noted
- Method: Growth inhibition of the NCI-H460 human Non-Small Cell Lung tumor cell line is measured as a screen for anti-cancer activity. Cells are grown in 96 well plates and exposed to the test compound for 48 hours. Compounds are tested at a single concentration, which is 10^-5 M for most compounds. The reported endpoint is percent growth (GI% or GIPRCNT), where numbers from 0 - 100% represent growth inhibition, and numbers from -100% - 0 represent cell death. […]
This is part of a sample that, as a whole, favours compounds with a hit. Of some 83,000 tested, about 20% had one in any assay.
Numbers only, in %.

Dear colleague, could you please provide growth for the compounds listed below?
1. CCc1ccc(-c2ccc(NC3CCCCCC3)nn2)cc1S(N)(=O)=O
2. CC(C)CC(NC(=O)OCC1c2ccccc2-c2ccccc21)C(=O)O (configuration not stated)
3. CCCCNCCC(O)c1cc2ccc(C(F)(F)F)cc2c2cc(C(F)(F)F)ccc12 (configuration not stated)
4. Cc1cc(-c2nnc(/C=C/c3ccc4c(c3)OCO4)o2)n[nH]1

104
115
-74.5
84.3

Dear colleague, could you please provide growth for the compounds listed below?
1. COc1ccc(C2CC(c3cccc(Nc4ccnc5cc(Cl)ccc45)c3)=NN2c2ccccc2)cc1 (configuration not stated)
2. COc1ccc(/C=C2\CCCC3=C2N=C2SC(C)=NN2C3c2ccc(OC)c(OC)c2)cc1OC (configuration not stated)
3. COc1ccccc1/C=N\NC(=S)Nc1ccc(F)cc1

43.7
19.1
80.5

Dear colleague, could you please provide growth for the compounds listed below?
1. COc1ccc2[nH]c(C(=O)OCc3ccc4c(Br)cc(Br)c(O)c4n3)cc2c1
2. CC1=NN(c2cccc(S(N)(=O)=O)c2)C(=O)C1
3. c1ccc(C2=Nc3ccccc3SC2)cc1
4. CNCCCNc1ccnc2cc(Cl)ccc12

1: -75.1; 2: 103; 3: 99.3; 4: -28.2

Which growth is reported for this compound? CN(C)CCOc1nc2c3cccnc3cc(-c3cccc(Cl)c3)c2c2ncccc12
-49.8

This collection of values is drawn from PubChem BioAssay (NCI).
